Target: cAMP and cAMP-inhibited cGMP 3',5'-cyclic phosphodiesterase 10A (Homo sapiens)
Sequence (Q9Y233 whole entry): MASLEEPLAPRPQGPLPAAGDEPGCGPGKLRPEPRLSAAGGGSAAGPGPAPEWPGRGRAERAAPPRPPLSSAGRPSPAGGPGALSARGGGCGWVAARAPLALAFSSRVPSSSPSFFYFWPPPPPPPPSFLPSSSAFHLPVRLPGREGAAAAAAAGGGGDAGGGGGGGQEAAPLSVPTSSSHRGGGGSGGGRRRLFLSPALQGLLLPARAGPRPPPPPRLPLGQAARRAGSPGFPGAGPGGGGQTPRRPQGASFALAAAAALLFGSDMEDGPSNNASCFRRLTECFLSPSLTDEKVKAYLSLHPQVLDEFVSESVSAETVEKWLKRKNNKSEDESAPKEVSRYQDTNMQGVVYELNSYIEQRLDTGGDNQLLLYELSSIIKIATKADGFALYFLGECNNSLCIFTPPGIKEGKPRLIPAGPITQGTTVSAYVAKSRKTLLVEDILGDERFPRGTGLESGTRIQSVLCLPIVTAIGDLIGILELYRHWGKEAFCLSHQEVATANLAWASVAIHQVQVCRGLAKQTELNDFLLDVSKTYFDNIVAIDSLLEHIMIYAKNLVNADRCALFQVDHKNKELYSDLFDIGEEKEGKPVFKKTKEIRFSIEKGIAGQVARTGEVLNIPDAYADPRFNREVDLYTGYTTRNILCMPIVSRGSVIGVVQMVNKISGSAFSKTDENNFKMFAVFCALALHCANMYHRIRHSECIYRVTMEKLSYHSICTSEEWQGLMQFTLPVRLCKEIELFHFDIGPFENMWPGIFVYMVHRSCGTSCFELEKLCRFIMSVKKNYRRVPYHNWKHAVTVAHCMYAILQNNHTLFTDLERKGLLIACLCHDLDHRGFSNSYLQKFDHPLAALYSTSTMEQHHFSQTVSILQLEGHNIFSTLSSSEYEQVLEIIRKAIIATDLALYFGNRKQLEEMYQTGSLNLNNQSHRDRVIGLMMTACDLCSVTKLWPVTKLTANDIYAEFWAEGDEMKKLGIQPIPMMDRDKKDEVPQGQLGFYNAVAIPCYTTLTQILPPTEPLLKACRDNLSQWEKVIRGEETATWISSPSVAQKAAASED
pKi: −log10 of the molar value.
PROPERTY: pKi

Cc1ccc(CNc2cc(OC[C@H]3C[C@@H]3c3ccn(C)n3)nn(C)c2=O)nc1 = 9.33

a = Cc1nnc(CNc2cc(OC[C@H]3C[C@@H]3c3ccc4ccccc4n3)nn(C)c2=O)s1
b = Cc1nnc(CNc2cc(OC[C@H]3C[C@@H]3c3nn(C)c4ccccc34)nn(C)c2=O)s1
c = COc1ccc([C@H]2C[C@@H]2COc2cc(NCc3cnn(C(F)F)c3)c(=O)n(C)n2)nc1
d = Cc1nnc(CNc2cc(OC[C@H]3C[C@@H]3c3ccc4c(n3)CCC4)nn(C)c2=O)s1
**Q:** Could you please sort these 4 entries by pKi from high to low? Response format: the labels, sorted as the prompt asks.
**A:** a, d, c, b
